All figures here come from PubChem BioAssay (NCI).

Property: TGI; scope: individual compounds
system: HL-60(TB) leukemia; assay: NCI tumour cell line growth inhibition, 48 h

Compound	TGI
CSC1(C(=O)O)C2CCC3C2CCC31 (stereo unspecified)	> 100 µM
COc1ccc(CCc2ccc3c(c2)OCO3)cc1	> 100 µM
O=NN1CCN=C1c1ccc([N+](=O)[O-])cc1	> 100 µM
O=c1[nH]c2ccc(Cl)cc2o1	> 100 µM
Clc1cc(OCc2nn3c(Cc4ccccc4)nnc3s2)c(Cl)cc1OCc1nn2c(Cc3ccccc3)nnc2s1	> 100 µM

Input line: Quick check: TGI of C=CCc1oc(C)nc1CCCC ?
Output line: > 100 µM

Input line: Give the measured TGI of Nc1n[nH]c2c(C(=O)Nc3ccc(Cl)cc3)c(N)n(N)c(=O)c12 .
Output line: > 100 µM

Input line: Name the reported TGI value associated with the compound COC(=O)c1c2c(c(C)[n+]([O-])c1C)C(=O)C(NCc1ccc(F)cc1)=CC2=O
Output line: 3.6 µM

Input line: Reported TGI for CC1(C2COC(=O)C2)SCCCS1 (stereo unspecified) : what is it?
Output line: > 100 µM

Input line: So what does the record say about TGI for COc1ccc(C(OCC2OC3(COC(c4ccccc4)(c4ccc(OC)cc4)c4ccc(OC)cc4)C(Oc4nc(=O)ccn43)C2O)(c2ccccc2)c2ccc(OC)cc2)cc1 (stereo unspecified) ?
Output line: > 100 µM

Input line: Data request, read-out TGI, for Cc1ccc(Nc2nc(=O)c3c([nH]c4ccccc43)s2)cc1
Output line: 36.5 µM

Input line: Can you share its TGI? I mean this compound: Cc1cccc2c1Sc1ccccc1C2NC(=O)CN(C)C (stereo unspecified)
Output line: > 100 µM

Input line: Sample COc1ccc2c(C)cc(N/N=C/c3ccc(C)s3)nc2c1 — what was its TGI?
Output line: > 56.2 µM

Input line: What value of TGI has been recorded for this entry: CN(c1ccccc1)c1nc(=[N+]2CCCC2)ss1
Output line: > 100 µM

Input line: // TGI lookup, key: CCC[CH2][Sn]([CH2]CCC)([O]C(=O)c1cc(F)ccc1F)[O]C(=O)c1cc(F)ccc1F
Output line: 3.09 µM

Input line: GET /values?readout=TGI&item= CN(C)C(=S)/N=c1\ssc(=S)n1Cc1ccco1
Output line: 8.2 µM
